B1: library; a variant is named by its letters at N, in order (parent)
chain: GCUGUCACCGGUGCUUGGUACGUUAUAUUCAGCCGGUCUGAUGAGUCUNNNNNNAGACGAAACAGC

- Variants of: B1
- experiment: normalized RNA/DNA level with ligand (relative to sTRSVctl = 100) (log10 (% of sTRSVctl)); HEK293T overexpressing SLC46A1; ligand concentration (+) RNA-Seq: 6 mM; higher = less ribozyme self-cleavage, higher mRNA level
- measurement_conditions: with (6R,S)-folinic acid; ligand present: yes
Please respond with reported normalized RNA/DNA level with ligand (log10) for every item in the list.

Request: Value lookup for normalized RNA/DNA level with ligand (log10); key = AGACAA
Response: 2.01

Request: Now give it for UAAAGG too.
Response: 1.94

Request: Now give it for GGUUUU too.
Response: 1.99

Request: Now give it for GCUCUU too.
Response: 2

Request: Now give it for GCUGCG too.
Response: 2.05

Request: Now give it for UCAAAG too.
Response: 1.98

Request: Now give it for GACCGA too.
Response: 2.03

Request: Now give it for CCUCAC too.
Response: 2.03

Request: Now give it for ACGGAG too.
Response: 2.03

Request: Now give it for CGCGUG too.
Response: 2

Request: Now give it for CUCGAA too.
Response: 1.99

Request: Now give it for UACACC too.
Response: 1.99

Request: Now give it for GUUAUC too.
Response: 2.04

Request: Now give it for AUAUUC too.
Response: 2.03

Request: Now give it for UGCGCC too.
Response: 2.04

Request: Now give it for AUUGAG too.
Response: 1.95

Request: Now give it for CAAUGA too.
Response: 2.02

Request: Now give it for AAGAAU too.
Response: 2.01

Request: Now give it for CUUUCG too.
Response: 2.05

Request: Now give it for AGAAAU too.
Response: 2.01

Request: Now give it for CAUGUA too.
Response: 1.99

Request: Now give it for UUGACG too.
Response: 2

Request: Now give it for UGUUCU too.
Response: 2.08

Request: Now give it for GGACAA too.
Response: 1.99

Request: Now give it for UUCCGC too.
Response: 2.01

Request: Now give it for UCGCAA too.
Response: 2

Request: Now give it for UUAAUC too.
Response: 2.03

Request: Now give it for UUCAAU too.
Response: 1.98

Request: Now give it for CCCCAU too.
Response: 2.03

Request: Now give it for GGAUAU too.
Response: 2.02

Request: Now give it for GACGGG too.
Response: 2.04

Request: Now give it for UAGUUG too.
Response: 1.96

Request: Now give it for GACUAA too.
Response: 1.98

Request: Now give it for CUCUGC too.
Response: 2.03

Request: Now give it for CAGUUG too.
Response: 2.06

Request: Now give it for UAGGCG too.
Response: 1.97

Request: Now give it for ACCUCG too.
Response: 2.07

Request: Now give it for CUGAUU too.
Response: 2.05

Request: Now give it for CGCAUC too.
Response: 1.97

Request: Now give it for AUUUCG too.
Response: 2

Request: Now give it for UGCUUU too.
Response: 2.03

Request: Now give it for CUUACG too.
Response: 2

Request: Now give it for GGGCAU too.
Response: 2.05

Request: Now give it for UCAAAC too.
Response: 2.01

Request: Now give it for GUCAGG too.
Response: 1.97

Request: Now give it for CUUUCC too.
Response: 2
